assay: qHTS assay to identify small molecule antagonists of the androgen receptor (AR) signaling pathway - cell viability counter screen (AID 743033; further: nearly all actives have a fitted effect of over 45% in size); settings: AR-bla HEK293 viability, CellTiter-Glo luminescence, 16 h; series mostly up to 58.5 µM
Inconclusive results are not listed. Activity calls are given as the source filed them. The call rests on the fitted dose curve; in most records, active means well fitted cell-killing curve with a large enough effect in the repeat runs; inconclusive means weak or mixed curves; inactive means no such curve, though single readings can be large or run the other way.
Respond only with the outcome that fits, drawn from t = active, f = inactive

**Query** // param item: CCC(=O)OCC(=O)[C@@]1(OC(=O)CC)[C@H](C)C[C@H]2[C@H]3[C@H]([C@@H](O)C[C@@]21C)[C@@]1(C)C=CC(=O)C=C1C[C@H]3Cl ; yields the recorded call
**Result** f

**Query** // param item: CCCCCCCCCCCCCCCCCCOP(=O)([O-])OC1CC[N+](C)(C)CC1 ; yields the recorded call
**Result** f

**Query** // param item: CC(=O)O[C@]1(C(C)=O)CC[C@H]2[C@@H]3CCC4=CC(=O)CC[C@]4(C)[C@@]3(F)[C@@H](O)C[C@@]21C ; yields the recorded call
**Result** f

**Query** // param item: CCCOc1cc(N)ccc1C(=O)OCCN(CC)CC ; yields the recorded call
**Result** f

**Query** // param item: CO/N=C(\C(=O)N[C@@H]1C(=O)N2C(C(=O)O)=CCS[C@H]12)c1csc(N)n1 ; yields the recorded call
**Result** f

**Query** // param item: CN1CCC(CN2c3ccccc3Sc3ccccc32)C1 (stereo unspecified) ; yields the recorded call
**Result** f

**Query** // param item: Cn1nnnc1SCC1=C(C(=O)O)N2C(=O)[C@@H](NC(=O)[C@H](O)c3ccccc3)[C@H]2SC1 ; yields the recorded call
**Result** f

**Query** // param item: O=C(O)CCC/C=C\C[C@@H]1[C@@H](/C=C/[C@@H](O)COc2cccc(Cl)c2)[C@H](O)C[C@@H]1O ; yields the recorded call
**Result** f

**Query** // param item: Nc1c(Br)cc(Br)cc1CNC1CCC(O)CC1 (stereo unspecified) ; yields the recorded call
**Result** f

**Query** // param item: COc1cc(C)c(/C=C/C(C)=C/C=C/C(C)=C/C(=O)O)c(C)c1C ; yields the recorded call
**Result** f

**Query** // param item: CC(=O)Nc1c(I)c(C(=O)O)c(I)c(N(C)C(C)=O)c1I ; yields the recorded call
**Result** f

**Query** // param item: CC(=O)O[C@H]1C(=O)[C@@]2(C)[C@H]([C@H](OC(=O)c3ccccc3)[C@]3(O)C[C@H](OC(=O)[C@H](O)[C@@H](NC(=O)c4ccccc4)c4ccccc4)C(C)=C1C3(C)C)[C@]1(OC(C)=O)CO[C@@H]1C[C@@H]2O ; yields the recorded call
**Result** t

**Query** // param item: CC(=O)OC[C@H]1O[C@@H](O[C@H]2[C@H](O)[C@@H](OC(=O)c3ccccc3C(=O)O)[C@H](O)O[C@@H]2COC(C)=O)[C@H](O)[C@@H](OC(=O)c2ccccc2C(=O)O)[C@@H]1O ; yields the recorded call
**Result** f

**Query** // param item: C[C@H](/C=C/[C@H](C)C(C)(C)O)[C@H]1CC[C@H]2/C(=C/C=C3C[C@@H](O)C[C@H](O)C3)CCC[C@]12C ; yields the recorded call
**Result** f

**Query** // param item: CC(C)(C)C1(O)CCN2CC3c4ccccc4CCc4cccc(c43)C2C1 (stereo unspecified) ; yields the recorded call
**Result** f

**Query** // param item: CC(=O)O[C@H]1CC[C@@]2(C)C(=CC[C@@H]3[C@@H]2CC[C@]2(C)C(c4cccnc4)=CC[C@@H]32)C1 ; yields the recorded call
**Result** f

Measured values drawn from PubChem BioAssay (Tox21) for this set.
